target-desc: CGRP receptor (Homo sapiens, UniProt O60894+Q16602)
Sequence (Q16602 23-461): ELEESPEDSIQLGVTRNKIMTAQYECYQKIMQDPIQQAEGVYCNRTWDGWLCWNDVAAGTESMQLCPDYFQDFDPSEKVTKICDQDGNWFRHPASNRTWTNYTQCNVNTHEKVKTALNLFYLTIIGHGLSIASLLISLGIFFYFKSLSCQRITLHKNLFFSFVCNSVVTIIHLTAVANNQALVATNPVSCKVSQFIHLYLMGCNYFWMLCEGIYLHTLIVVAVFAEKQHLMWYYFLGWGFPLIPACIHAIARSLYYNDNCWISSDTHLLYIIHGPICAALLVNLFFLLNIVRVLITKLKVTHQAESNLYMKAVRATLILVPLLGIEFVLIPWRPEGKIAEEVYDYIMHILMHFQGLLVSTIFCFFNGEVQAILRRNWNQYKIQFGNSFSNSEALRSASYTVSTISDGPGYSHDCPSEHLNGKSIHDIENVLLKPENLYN
Sequence (O60894 27-148): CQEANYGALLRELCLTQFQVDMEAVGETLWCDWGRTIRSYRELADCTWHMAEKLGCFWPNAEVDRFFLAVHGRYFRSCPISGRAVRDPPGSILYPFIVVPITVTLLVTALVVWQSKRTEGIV
experimental-details: CGRP radioligand binding assay ([125I]-CGRP displacement, SK-N-MC homogenate)
Parameters: endogenous in cells; host or cells: SK-N-MC cells (homogenate/membrane pellet)
condition-info: displacement of [125I]-CGRP, room temperature 2 h
pIC50: −log10 of the molar value.
Here, each record is paired with measured pIC50 data.

smiles-data: O=C(C[C@@H]1Cc2ccc3[nH]ncc3c2CN(Cc2ccccc2)C1=O)N1CCC(N2Cc3ccccc3NC2=O)CC1
pIC50: 6.00 to 7.00
--
smiles-data: CC(C)(C)CCN1Cc2c(ccc3[nH]ncc23)C[C@@H](NC(=O)N2CCC(N3Cc4ccccc4NC3=O)CC2)C1=O
pIC50: 8.00 to 10.00
--
smiles-data: Cc1cc2c(c3cn[nH]c13)CN(CC(C)(C)C)C(=O)[C@H](CC(=O)N1CCC(c3cc4ccccc4[nH]c3=O)CC1)C2
pIC50: 8.00 to 10.00
--
smiles-data: COCCN1Cc2c(cc(Br)c3[nH]ncc23)C[C@@H](CC(=O)N2CCC(c3cc4ccccc4[nH]c3=O)CC2)C1=O
pIC50: 8.00 to 10.00

* * *

target-desc: CGRP receptor (Homo sapiens, UniProt O60894+Q16602)
experimental-details: CGRP radioligand binding assay ([125I]-CGRP displacement, SK-N-MC homogenate)
Set-up: endogenous in cells; host or cells: SK-N-MC cells (homogenate/membrane pellet)
condition-info: displacement of [125I]-CGRP, room temperature 2 h
pIC50: −log10 of the molar value.
pIC50 reference
result-type: pIC50

molecule: COc1cc2ccccc2cc1C1CCN(C(=O)C[C@@H]2Cc3cc(Cl)c4[nH]ncc4c3CN(CC(C)(C)C)C2=O)CC1 [Example 73]
result-type: pIC50
assay-value: < 6.00

molecule: CC(C)(C)CN1Cc2c(ccc3[nH]ncc23)C[C@@H](NC(=O)N2CCN(C3Cc4ccccc4NC3=O)CC2)C1=O (stereo partly shown) [Example 68]
result-type: pIC50
assay-value: 6.00 to 7.00

molecule: CC(C)(C)CN1Cc2c(cc(Cl)c3[nH]ncc23)C[C@@H](CC(=O)N2CCC(c3cc4ccccc4cc3O)CC2)C1=O [Example 74]
result-type: pIC50
assay-value: < 6.00

molecule: CN(C)CCN1Cc2c(ccc3[nH]ncc23)C[C@@H](NC(=O)N2CCC(N3Cc4ccccc4NC3=O)CC2)C1=O [Example 5]
result-type: pIC50
assay-value: 6.00 to 7.00

* * *

target-desc: CGRP receptor (Homo sapiens, UniProt O60894+Q16602)
experimental-details: CGRP radioligand binding assay ([125I]-CGRP displacement, SK-N-MC homogenate)
Set-up: endogenous in cells; host or cells: SK-N-MC cells (homogenate/membrane pellet)
condition-info: displacement of [125I]-CGRP, room temperature 2 h
Readings of IC50 for the listed molecules
result-type: IC50

molecule: CC(C)c1cc2c(c3cn[nH]c13)CN(CC(C)(C)C)C(=O)[C@H](CC(=O)N1CCC(c3cc4cccc(F)c4[nH]c3=O)CC1)C2
result-type: IC50
assay-value: 10 to 100 nM

molecule: CC(C)(C)CN1Cc2c(cc(Cl)c3[nH]ncc23)C[C@@H](CC(=O)N2CCC(C3=Cc4ccccc4NS3(=O)=O)CC2)C1=O
result-type: IC50
assay-value: 10 to 100 nM

molecule: CC(C)c1cc2c(c3cn[nH]c13)CN(CC(C)(C)C)C(=O)[C@H](CC(=O)N1CCC(c3cc4ccccc4[nH]c3=O)CC1)C2
result-type: IC50
assay-value: 10 to 100 nM

molecule: O=C(C[C@@H]1Cc2cc(Cl)c3[nH]ncc3c2CN(Cc2ncc[nH]2)C1=O)N1CCC(N2Cc3ccccc3NC2=O)CC1
result-type: IC50
assay-value: 0.1 to 10 nM

molecule: CC(C)CN1Cc2c(ccc3[nH]ncc23)CC(NC(=O)N2CCC(N3Cc4ccccc4NC3=O)CC2)C1=O (stereo not drawn)
result-type: IC50
assay-value: 10 to 100 nM

molecule: O=C(C[C@@H]1Cc2cc(Cl)c3[nH]ncc3c2CN(Cc2ccncc2)C1=O)N1CCC(c2cc(-c3ccccc3)[nH]n2)CC1
result-type: IC50
assay-value: 10 to 100 nM

* * *

target-desc: CGRP receptor (Homo sapiens, UniProt O60894+Q16602)
experimental-details: CGRP radioligand binding assay ([125I]-CGRP displacement, SK-N-MC homogenate)
Set-up: endogenous in cells; host or cells: SK-N-MC cells (homogenate/membrane pellet)
condition-info: displacement of [125I]-CGRP, room temperature 2 h
pIC50: −log10 of the molar value.
The entries below come with measured pIC50 values attached.

compound: CC(C)(C)CN1Cc2c(ccc3[nH]ncc23)C[C@@H](CCN2CCC(N3Cc4ccccc4NC3=O)CC2)C1=O
target-desc: CGRP receptor (Homo sapiens, UniProt O60894+Q16602)
pIC50: < 6.00
--
compound: Cc1cc2c(c3cn[nH]c13)CN(CC(C)(C)C)C(=O)[C@H](CC(=O)N1CCC(c3cc4cccc(F)c4[nH]c3=O)CC1)C2
target-desc: CGRP receptor (Homo sapiens, UniProt O60894+Q16602)
pIC50: 7.00 to 8.00
--
compound: CN1Cc2c(cc(Cl)c(O)c2Cl)CC(NC(=O)N2CCC(N3Cc4ccccc4NC3=O)CC2)C1=O (stereo not shown)
target-desc: CGRP receptor (Homo sapiens, UniProt O60894+Q16602)
pIC50: < 6.00
--
compound: O=C(C[C@@H]1Cc2cc(Cl)c3[nH]ncc3c2CN(CC(F)(F)F)C1=O)N1CCC(c2cc3cccc(F)c3[nH]c2=O)CC1
target-desc: CGRP receptor (Homo sapiens, UniProt O60894+Q16602)
pIC50: 8.00 to 10.00

* * *

target-desc: CGRP receptor (Homo sapiens, UniProt O60894+Q16602)
experimental-details: CGRP radioligand binding assay ([125I]-CGRP displacement, SK-N-MC homogenate)
Set-up: endogenous in cells; host or cells: SK-N-MC cells (homogenate/membrane pellet)
condition-info: displacement of [125I]-CGRP, room temperature 2 h

compound: CC(C)CN1Cc2c(ccc3[nH]ncc23)CC(NC(=O)N2CCC3(CC2)NC(=O)Nc2ccccc23)C1=O (stereo not shown)
IC50: 100 to 1000 nM
//
compound: CC(C)(C)CN1Cc2c(cc(Cl)c3[nH]ncc23)C[C@@H](CC(=O)N2CCC(N3Cc4cccc(F)c4NC3=O)CC2)C1=O
IC50: 0.1 to 10 nM
//
compound: O=C(C[C@@H]1Cc2cc(Cl)c3[nH]ncc3c2CN(Cc2ccncc2)C1=O)N1CCC(N2Cc3ccccc3NC2=O)CC1
IC50: 0.1 to 10 nM
//
compound: Cc1cc2c(c3cn[nH]c13)CN(CC(F)(F)F)C(=O)[C@H](CC(=O)N1CCC(c3cc4ccccc4[nH]c3=O)CC1)C2
IC50: 0.1 to 10 nM
//
compound: CC(C)(C)CN1Cc2c(cc(Cl)c3[nH]ncc23)C[C@@H](CC(=O)N2CCC(c3cc4ccc(Cl)cc4[nH]c3=O)CC2)C1=O
IC50: 0.1 to 10 nM
//
compound: C=C(C)c1cc2c(c3cn[nH]c13)CN(CC(F)(F)F)C(=O)[C@H](CC(=O)N1CCC(c3cc4cccc(F)c4[nH]c3=O)CC1)C2
IC50: 100 to 1000 nM
//
compound: O=C(C[C@@H]1Cc2cc(Cl)c3[nH]ncc3c2CN(Cc2ccncc2)C1=O)N1CCC(c2ccc(-c3ccccc3)c[n+]2[O-])CC1
IC50: 100 to 1000 nM
//
compound: CC(C)(C)CN1Cc2c(cc(Cl)c3[nH]ncc23)C[C@@H](CC(=O)N2CCC(N3Cc4cccnc4NC3=O)CC2)C1=O
IC50: 0.1 to 10 nM
//
compound: CC(C)(C)CN1Cc2c(ccc3[nH]ncc23)CC(N/C(=N/C#N)N2CCC(N3Cc4ccccc4NC3=O)CC2)C1=O (stereo not shown)
IC50: 0.1 to 10 nM
//
compound: CC(C)(C)CN1Cc2c(cc(Cl)c3[nH]ncc23)C[C@@H](CC(=O)N2CCC(n3cc(-c4ccccn4)[nH]c3=O)CC2)C1=O
IC50: 0.1 to 10 nM
//
compound: CC(C)(C)CN1Cc2c(cc(Cl)c3[nH]ncc23)C[C@@H](CC(=O)N2CCC(c3cc4ccccc4[nH]c3=O)CC2)C1=O
IC50: 0.1 to 10 nM
//
compound: O=C(N[C@@H]1Cc2cc(Cl)c3[nH]ncc3c2CN(Cc2ccccc2)C1=O)N1CCC(N2Cc3ccccc3NC2=O)CC1
IC50: 0.1 to 10 nM
//
compound: CC(C)(C)CN1Cc2c(cc(Cl)c3[nH]ncc23)C[C@@H](CC(=O)Nc2ccc3c(c2)CCC2(C3)NC(=O)NC2=O)C1=O (mixture of isomers)
IC50: 0.1 to 10 nM

Taken from patent US7384931B2.
